- tested-system: UGT1A9 (Homo sapiens)
- Construct: human recombinant UGT1A9
- Sequence (O60656 26-530): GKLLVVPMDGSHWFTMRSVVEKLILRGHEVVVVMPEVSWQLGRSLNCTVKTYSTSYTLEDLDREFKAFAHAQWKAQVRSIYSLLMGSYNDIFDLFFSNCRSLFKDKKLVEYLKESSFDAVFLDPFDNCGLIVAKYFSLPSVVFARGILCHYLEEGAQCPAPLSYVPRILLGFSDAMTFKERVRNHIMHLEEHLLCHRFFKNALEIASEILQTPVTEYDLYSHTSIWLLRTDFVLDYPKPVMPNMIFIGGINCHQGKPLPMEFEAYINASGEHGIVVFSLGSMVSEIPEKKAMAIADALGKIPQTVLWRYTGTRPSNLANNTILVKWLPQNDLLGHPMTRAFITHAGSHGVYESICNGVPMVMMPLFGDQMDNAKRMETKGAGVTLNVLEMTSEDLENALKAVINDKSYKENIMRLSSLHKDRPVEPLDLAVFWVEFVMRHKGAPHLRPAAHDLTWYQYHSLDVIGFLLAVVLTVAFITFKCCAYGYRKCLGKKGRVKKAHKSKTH
- test-summary: inhibition of PTU glucuronidation by recombinant UGT1A9, HPLC-MS/MS
- Assay type: biochemical
- test-settings: read-out: Magnolol IC50
parameter: pIC50
Keep in mind that pIC50 stands for -log10 of concentration in molar terms.

Return reported pIC50; argument: C=CCc1ccc(O)c(-c2cc(CC=C)ccc2O)c1 5.94
